I'd appreciate it if you could supply Time (in minutes) to achieve 50% loss of bound cluster (Absorbance 458 nm) values for the items below.
tested-on: CISD2 Gene Product (NAF-1) (Homo sapiens)
Sequence (Q8N5K1 57-135 limits assumed): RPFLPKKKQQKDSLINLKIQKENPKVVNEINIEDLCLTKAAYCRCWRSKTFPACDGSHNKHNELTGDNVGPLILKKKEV
protocol-text: Stability of Fe-S cluster binding of purified NEET protein (absorbance 458 nm)
Assay type: biochemical
condition-summary: NAF-1 20 μM, compound 60 μM, pH 6, 37° C., run time 500 minutes; vehicle control 310 or 210

Please supply the value of reported Time (in minutes) to achieve 50% loss of bound cluster (Absorbance 458 nm) for the item CC1(C)Cc2c(sc(NC(=O)c3ccc(NCC4CCOCC4)cc3)c2C(=O)O)C(C)(C)C1 [Compound #132]
210 (310) minutes

Please supply the value of reported Time (in minutes) to achieve 50% loss of bound cluster (Absorbance 458 nm) for the item CC1(C)Cc2c(sc(NC(=O)c3ccc(N4CCOCC4)cc3)c2C(=O)O)C(C)(C)C1 [Compound #36]
210 (210) minutes

Please supply the value of reported Time (in minutes) to achieve 50% loss of bound cluster (Absorbance 458 nm) for the item COC1CN(c2ccc(C(=O)Nc3sc4c(c3C(=O)O)CC(C)(C)CC4(C)C)cc2)C1 [Compound #58]
280 (310) minutes

Please supply the value of reported Time (in minutes) to achieve 50% loss of bound cluster (Absorbance 458 nm) for the item CC1CC(C)(C)Cc2sc(NC(=O)c3ccc(NC4CCOCC4)cc3)c(C(=O)O)c21 (centres unmarked) [Compound #136]
325 (310) minutes

Please supply the value of reported Time (in minutes) to achieve 50% loss of bound cluster (Absorbance 458 nm) for the item COc1ccc(C(=O)Nc2sc3c(c2C(=O)O)CCC(C)(C)C3)cc1OC [Compound #18]
425 (310) minutes

Please supply the value of reported Time (in minutes) to achieve 50% loss of bound cluster (Absorbance 458 nm) for the item CC1(C)Cc2c(sc(NC(=O)c3ccc(NC4CCOCC4)cc3)c2C(=O)O)C(C)(C)C1 [Compound #35]
220 (310) minutes

Please supply the value of reported Time (in minutes) to achieve 50% loss of bound cluster (Absorbance 458 nm) for the item COCCNc1ccc(C(=O)Nc2sc3c(c2C(=O)O)CC(C)(C)CC3(C)C)cc1 [Compound #60]
120 (310) minutes

Please supply the value of reported Time (in minutes) to achieve 50% loss of bound cluster (Absorbance 458 nm) for the item CN(c1ccc(C(=O)Nc2sc3c(c2C(=O)O)CC(C)(C)CC3(C)C)cc1)C1CCOCC1 [Compound #135]
160 (310) minutes
